Measured values drawn from paper PMC8920097 for this set.

Assay: Charge character of the drugs at pH 7.4
Format: physicochemical
measured quantity: Charge

1. CN(C)CCCN1c2ccccc2Sc2ccc(Cl)cc21 = Basic
2. Cc1nccn1CC1CCc2c(c3ccccc3n2C)C1=O (stereo not shown) = Weak Base
3. CN1CCN(CCCN2c3ccccc3Sc3ccc(C(F)(F)F)cc32)CC1 = Basic
4. O=C(O)c1cn(C2CC2)c2cc(N3CCNCC3)c(F)cc2c1=O = Zwitterionic
5. O=C(NCC1CCCCN1)c1cc(OCC(F)(F)F)ccc1OCC(F)(F)F (stereo not shown) [Flecainide] = Basic
6. CNCCCN1c2ccccc2CCc2ccccc21 = Basic
7. C[C@H]1COc2c(N3CCN(C)CC3)c(F)cc3c(=O)c(C(=O)O)cn1c23 = Zwitterionic
8. COCCc1ccc(OCC(O)CNC(C)C)cc1 (stereo not shown) = Basic
9. O=c1[nH]c2ccccc2n1CCCN1CCC(n2c(=O)[nH]c3cc(Cl)ccc32)CC1 = Weak Base
10. Cc1cc2c(s1)Nc1ccccc1N=C2N1CCN(C)CC1 = Weak Base
11. O=C(O[C@@H]1C[C@@H]2C[C@H]3C[C@H](C1)N2CC3=O)c1c[nH]c2ccccc12 = Weak Base
12. CN(C)CCC(c1ccc(Br)cc1)c1ccccn1 (stereo not shown) = Basic
13. CC(C)NCC(O)c1ccc(NS(C)(=O)=O)cc1 (stereo not shown) = Basic
14. CN(C)CCOC(c1ccccc1)c1ccccc1 [Diphenhydramine] = Basic
15. CN(C)CCCC1(c2ccc(F)cc2)OCc2cc(C#N)ccc21 (stereo not shown) = Basic
16. Nc1nnc(-c2cccc(Cl)c2Cl)c(N)n1 = Weak Base
17. CC(C)(C)NC(=O)[C@@H]1C[C@@H]2CCCC[C@@H]2CN1C[C@@H](O)[C@H](Cc1ccccc1)NC(=O)[C@H](CC(N)=O)NC(=O)c1ccc2ccccc2n1 = Weak Base
